Exercise: state measured IC50 for each of the molecules provided.
# Tested on: HCT116 p53^−/−
# condition_parameters: 72 h
Positions of bridges follow the written chain, without caps; N, C: chain ends. Non-standard residues stand in square brackets, D forms with d. Residues, ends and D or L forms follow the SMILES beside them. R8 = C=CCCCCCC[C@@](C)(N)C(=O)O; S5 = C=CCCC[C@](C)(N)C(=O)O
Answers are plain numbers, in µM.

| molecule | IC50 (µM) |
| --- | --- |
| CSCC[C@@H]1NC(=O)[C@H](CC(C)C)NC(=O)[C@H](CCC(N)=O)NC(=O)[C@@](C)(NC(=O)[C@H](Cc2c[nH]c3ccccc23)NC(=O)[C@H](Cc2ccc(O)cc2)NC(=O)[C@H](CCC(=O)O)NC(=O)[C@H](CC(C)C)NC(=O)[C@H](Cc2ccccc2)NC(=O)[C@@H](NC(=O)[C@H](CC(C)C)NC(=O)[C@H](CCCCN)NC(C)=O)[C@@H](C)O)CCCC=CCCC[C@@](C)(C(=O)N[C@@H](CCCCN)C(N)=O)NC1=O [SM3-5] (Ac-KLTFLEYW[S5]QLM[S5]K-NH2; staple 9-13) | 27.4 |
| CSCC[C@H](NC(=O)[C@H](CC(C)C)NC(=O)[C@H](CCC(N)=O)NC(=O)[C@H](C)NC(=O)[C@H](Cc1c[nH]c2ccccc12)NC(=O)[C@]1(C)CCCC=CCCC[C@](C)(NC(=O)[C@H](CC(C)C)NC(=O)[C@H](CCCCN)NC(C)=O)C(=O)N[C@@H](Cc2ccccc2)C(=O)N[C@@H](CC(C)C)C(=O)N[C@@H](CCC(=O)O)C(=O)N1)C(=O)N[C@@H](CCC(N)=O)C(=O)N[C@@H](CCCCN)C(N)=O [SM3-2] (Ac-KL[S5]FLE[S5]WAQLMQK-NH2; staple 3-7) | 24 |
| CC(=O)N[C@@H](CCCCN)C(=O)N[C@@H](CC(C)C)C(=O)N[C@H](C(=O)N[C@@H](Cc1ccccc1)C(=O)N[C@]1(C)CCCCCCC=CCCC[C@@](C)(C(=O)N[C@@H](CCC(N)=O)C(=O)N[C@@H](CCCCN)C(N)=O)NC(=O)[C@H](CC(C)C)NC(=O)[C@H](CCC(N)=O)NC(=O)[C@H](C)NC(=O)[C@H](Cc2c[nH]c3ccccc23)NC(=O)[C@H](Cc2ccc(O)cc2)NC(=O)[C@H](CCC(=O)O)NC1=O)[C@@H](C)O [SM3-8] (Ac-KLTF[R8]EYWAQL[S5]QK-NH2; staple 5-12) | 17.9 |

Record CSCC[C@H](NC(=O)[C@H](CC(C)C)NC(=O)[C@]1(C)CCCC=CCCC[C@](C)(NC(=O)[C@H](CC(C)C)NC(=O)[C@H](Cc2ccccc2)NC(=O)[C@@H](NC(=O)[C@H](CC(C)C)NC(=O)[C@H](CCCCN)NC(C)=O)[C@@H](C)O)C(=O)N[C@@H](Cc2ccc(O)cc2)C(=O)N[C@@H](Cc2c[nH]c3ccccc23)C(=O)N[C@@H](C)C(=O)N1)C(=O)N[C@@H](CCC(N)=O)C(=O)N[C@@H](CCCCN)C(N)=O [SM3-4] (Ac-KLTFL[S5]YWA[S5]LMQK-NH2; staple 6-10) . Reported IC50: 33.2
